- system-under-test: huPD-L1 (Homo sapiens, UniProt Q9NZQ7)
- Sequence (Q9NZQ7 19-290): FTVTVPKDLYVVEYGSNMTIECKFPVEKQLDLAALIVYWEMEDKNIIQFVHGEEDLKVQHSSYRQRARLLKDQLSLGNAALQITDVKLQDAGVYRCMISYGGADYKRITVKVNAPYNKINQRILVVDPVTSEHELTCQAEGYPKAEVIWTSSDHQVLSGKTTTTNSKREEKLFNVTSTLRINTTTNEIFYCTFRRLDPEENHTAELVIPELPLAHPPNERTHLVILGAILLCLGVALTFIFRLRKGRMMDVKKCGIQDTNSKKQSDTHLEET
- measurement-protocol: Flow binding to CHO cells stably expressing PD-L1
- Design: huCTLA4 and huPD-L1, full-length mammalian surface expression constructs were generated; expressed in transfected cells; host or cells: CHO cells, lentiviral transduction, sorted to >98% purity
- test-conditions: Table E11; 33.3 nM; listed as WT CD80 ECD-Fc = 1.0
outcome-measure: PD-L1 Fold change to WT CD80
# answer = number (no unit)

Sample records with PD-L1 Fold change to WT CD80:
[[record]]
molecule = "E35D/M47V/N48KN68M/L85M (protein) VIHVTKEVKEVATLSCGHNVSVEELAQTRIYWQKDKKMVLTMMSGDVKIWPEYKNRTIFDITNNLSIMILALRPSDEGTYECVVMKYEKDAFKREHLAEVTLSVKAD"
measured_result = 147.9

[[record]]
molecule = "E35D/M47V/N48KN68M/A71G/L85M (protein) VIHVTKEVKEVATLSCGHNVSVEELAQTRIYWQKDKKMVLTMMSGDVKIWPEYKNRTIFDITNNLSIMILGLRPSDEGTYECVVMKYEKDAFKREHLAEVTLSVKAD"
measured_result = 442.1


Q. What does the record list as PD-L1 Fold change to WT CD80 for E35D/M47L/Y53F/V68M/A71G/K93R/E95V (protein, UniProt P33681 35-288, looked up, variant E35D M47L Y53F V68M A71G K93R E95V) T-lymphocyte activation …: VIHVTKEVKEVATLSCGHNVSVEELAQTRIYWQKDKKMVLTMMSGDLNIWPEFKNRTIFDITNNLSIMILGLRPSDEGTYECVVLKYEKDAFRRVHLAEVTLSVKADFPTPSISDFEIPTSNIRRIICSTSGGFPEPHLSWLENGEELNAINTTVSQDPETELYAVSSKLDFNMTTNHSFMCLIKYGHLRVNQTFNWNTTKQEHFPDNLLPSWAITLISVNGIFVICCLTYCFAPRCRERRRNERLRRESVRPV ?
A. 485.9

Q. What does the record list as PD-L1 Fold change to WT CD80 for T13R/Q33R/E35D/M38I/M47L/V68M (protein, UniProt P33681 35-288, looked up, variant T13R Q33R E35D M38I M47L V68M) T-lymphocyte activation …: VIHVTKEVKEVARLSCGHNVSVEELAQTRIYWRKDKKIVLTMMSGDLNIWPEYKNRTIFDITNNLSIMILALRPSDEGTYECVVLKYEKDAFKREHLAEVTLSVKADFPTPSISDFEIPTSNIRRIICSTSGGFPEPHLSWLENGEELNAINTTVSQDPETELYAVSSKLDFNMTTNHSFMCLIKYGHLRVNQTFNWNTTKQEHFPDNLLPSWAITLISVNGIFVICCLTYCFAPRCRERRRNERLRRESVRPV ?
A. 87.0

Q. What does the record list as PD-L1 Fold change to WT CD80 for H18Y/E35D/M38I/M47L/V68M/L85M (protein, UniProt P33681 35-288, looked up, variant H18Y E35D M38I M47L V68M L85M) T-lymphocyte activation …: VIHVTKEVKEVATLSCGYNVSVEELAQTRIYWQKDKKIVLTMMSGDLNIWPEYKNRTIFDITNNLSIMILALRPSDEGTYECVVMKYEKDAFKREHLAEVTLSVKADFPTPSISDFEIPTSNIRRIICSTSGGFPEPHLSWLENGEELNAINTTVSQDPETELYAVSSKLDFNMTTNHSFMCLIKYGHLRVNQTFNWNTTKQEHFPDNLLPSWAITLISVNGIFVICCLTYCFAPRCRERRRNERLRRESVRPV ?
A. 69.7
